Consider the following molecules and their measured residual activity readings.
# TEST_TARGET: Solute carrier organic anion transporter family member 1B1 (Homo sapiens)
# Sequence (Q9Y6L6 whole entry): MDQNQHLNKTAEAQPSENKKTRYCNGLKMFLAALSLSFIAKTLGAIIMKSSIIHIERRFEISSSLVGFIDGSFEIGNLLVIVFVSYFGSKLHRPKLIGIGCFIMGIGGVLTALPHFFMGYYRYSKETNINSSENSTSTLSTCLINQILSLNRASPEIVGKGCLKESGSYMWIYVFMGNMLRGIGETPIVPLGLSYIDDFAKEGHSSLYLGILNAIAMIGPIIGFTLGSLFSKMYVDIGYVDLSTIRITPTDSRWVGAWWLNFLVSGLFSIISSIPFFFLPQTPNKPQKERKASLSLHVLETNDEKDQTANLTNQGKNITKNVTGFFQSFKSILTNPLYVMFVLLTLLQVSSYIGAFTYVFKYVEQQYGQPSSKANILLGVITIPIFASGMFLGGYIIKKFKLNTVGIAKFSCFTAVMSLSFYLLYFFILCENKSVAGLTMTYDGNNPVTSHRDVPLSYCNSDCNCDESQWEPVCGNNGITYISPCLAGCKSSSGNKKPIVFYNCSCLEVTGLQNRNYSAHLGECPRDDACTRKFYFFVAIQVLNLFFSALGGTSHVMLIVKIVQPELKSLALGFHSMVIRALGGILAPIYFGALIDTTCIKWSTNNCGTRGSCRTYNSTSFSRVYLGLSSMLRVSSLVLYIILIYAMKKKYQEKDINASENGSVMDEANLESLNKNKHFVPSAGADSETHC
# CONDITION_CONTEXT: chinese hamster, cho, 10 µM
VALUE_KIND: residual activity (%)

MOLECULE	TEST_TARGET	TEST_RESULT
CCCN(CCC)c1c([N+](=O)[O-])cc(C(F)(F)F)cc1[N+](=O)[O-]	Solute carrier organic anion transporter family member 1B1 (Homo sapiens)	93.6
O=C(NC(=O)c1c(F)cccc1F)Nc1cc(Cl)c(OC(F)(F)C(F)C(F)(F)F)cc1Cl (stereo not drawn)	Solute carrier organic anion transporter family member 1B1 (Homo sapiens)	102.8
COc1cc2c(cc1OC)-c1cc3ccc(OC)c(OC)c3c[n+]1CC2	Solute carrier organic anion transporter family member 1B1 (Homo sapiens)	78.6
C=C[C@H]1CN2CC[C@H]1C[C@H]2[C@H](O)c1ccnc2ccccc12	Solute carrier organic anion transporter family member 1B1 (Homo sapiens)	86.58
COc1ccc2c(c1OC)C(=O)O[C@@H]2[C@H]1c2c(cc3c(c2OC)OCO3)CCN1C.Cl [NOSCAPINE HYDROCHLORIDE]	Solute carrier organic anion transporter family member 1B1 (Homo sapiens)	114.6
CC(C)Oc1ccc2c(=O)c(-c3ccccc3)coc2c1	Solute carrier organic anion transporter family member 1B1 (Homo sapiens)	137.7
COc1ccc([C@@H]2Sc3ccccc3N(CCN(C)C)C(=O)[C@@H]2OC(C)=O)cc1.Cl [DILTIAZEM HYDROCHLORIDE]	Solute carrier organic anion transporter family member 1B1 (Homo sapiens)	26.71
COc1cccc(-c2cc(=O)c3ccc(OC)cc3o2)c1	Solute carrier organic anion transporter family member 1B1 (Homo sapiens)	98.64

###

Consider the following compounds and their measured residual activity readings.
# TEST_TARGET: Solute carrier organic anion transporter family member 1B3 (Homo sapiens, UniProt Q9NPD5)
# Sequence (Q9NPD5 whole entry): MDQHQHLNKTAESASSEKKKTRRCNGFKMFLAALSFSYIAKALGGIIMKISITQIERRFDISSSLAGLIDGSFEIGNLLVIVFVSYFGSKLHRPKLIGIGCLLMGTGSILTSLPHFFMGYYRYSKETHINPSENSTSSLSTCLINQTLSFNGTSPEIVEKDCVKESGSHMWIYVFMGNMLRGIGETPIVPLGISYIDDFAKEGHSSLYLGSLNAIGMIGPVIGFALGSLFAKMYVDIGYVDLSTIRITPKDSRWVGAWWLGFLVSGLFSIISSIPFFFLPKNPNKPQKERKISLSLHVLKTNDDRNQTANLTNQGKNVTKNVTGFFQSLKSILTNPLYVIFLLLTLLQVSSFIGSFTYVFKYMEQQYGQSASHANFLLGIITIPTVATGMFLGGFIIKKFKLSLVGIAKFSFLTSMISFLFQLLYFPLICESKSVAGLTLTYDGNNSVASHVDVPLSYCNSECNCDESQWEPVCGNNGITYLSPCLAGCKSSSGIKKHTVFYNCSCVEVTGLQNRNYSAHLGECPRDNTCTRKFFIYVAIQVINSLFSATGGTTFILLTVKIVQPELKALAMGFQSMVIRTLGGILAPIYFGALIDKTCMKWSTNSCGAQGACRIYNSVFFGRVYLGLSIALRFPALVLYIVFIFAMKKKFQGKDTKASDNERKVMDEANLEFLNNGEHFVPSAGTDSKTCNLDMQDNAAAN
# CONDITION_CONTEXT: chinese hamster, cho, 10 µM

COMPOUND	TEST_TARGET	residual activity [%]
C=CC1=C(C)c2cc3[nH]c(cc4nc(cc5[nH]c(cc1n2)c(C)c5CCC(=O)O)C(CCC(=O)O)=C4C)c(C)c3C=C	Solute carrier organic anion transporter family member 1B3 (Homo sapiens, UniProt Q9NPD5)	94.63
CC(C)C[C@H](CN)CC(=O)O	Solute carrier organic anion transporter family member 1B3 (Homo sapiens, UniProt Q9NPD5)	101.4
CC[C@H](C)C(=O)O[C@H]1C[C@H](O)C=C2C=C[C@H](C)[C@H](CC[C@@H](O)C[C@@H](O)CC(=O)[O-])[C@H]21.[Na+] [PRAVASTATIN SODIUM]	Solute carrier organic anion transporter family member 1B3 (Homo sapiens, UniProt Q9NPD5)	102.8
Nc1nc(/C(=C/CC(=O)O)C(=O)N[C@@H]2C(=O)N3C(C(=O)O)=CCS[C@H]23)cs1	Solute carrier organic anion transporter family member 1B3 (Homo sapiens, UniProt Q9NPD5)	84.47

###

# TEST_TARGET: UniProt Q9NPD5
# CONDITION_CONTEXT: chinese hamster, cho, 10 µM
Consider the following compounds and their measured residual activity readings.

COMPOUND	UNIT_LABEL	residual activity
CC(=O)Nc1ccc(OCC(O)CNC(C)C)cc1 (stereo not given) [PRACTOLOL]	%	99.03
Cl.Nc1ccc(/N=N/c2ccccc2)c(N)n1 [PHENAZOPYRIDINE HYDROCHLORIDE]	%	115.3
O=C(NCO)c1cccnc1 [N-HYDROXYMETHYLNICOTINAMIDE]	%	92.24
NS(=O)(=O)c1cc(C(=O)O)c(NCc2ccco2)cc1Cl [FUROSEMIDE]	%	90.27
N#C/C(=C\c1cccc(O)c1)C(=O)O [alpha-CYANO-3-HYDROXYCINNAMIC ACID]	%	89.69
